As shown below, each of these compounds has a reported ΔH value.
- target under test: Link_TSG6 (Homo sapiens, UniProt P98066)
- Construct: made in house
- Sequence (P98066 36-129 limits assumed): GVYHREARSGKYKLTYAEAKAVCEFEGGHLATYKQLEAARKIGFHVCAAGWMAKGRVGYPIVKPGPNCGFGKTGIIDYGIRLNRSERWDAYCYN
- method notes: ITC of HA oligosaccharides binding to Link_TSG6
- assay setup: Table 1; ITC, 25 °C, 5 mM MES pH 6.0; mean ± SEM
Your answer is read as kcal/mol, so omit the unit and give the number.

| smi | target under test | property measured | value units | test value |
| --- | --- | --- | --- | --- |
| CC(=O)N[C@H]1[C@H](O[C@H]2[C@H](O)[C@@H](O)[C@H](O[C@H]3[C@H](O)[C@@H](CO)O[C@@H](O[C@H]4[C@H](O)[C@@H](O)[C@H](O[C@H]5[C@H](O)[C@@H](CO)O[C@@H](O[C@H]6[C@H](O)[C@@H](O)[C@H](O[C@@H]([C@H](O)[C@H](O)CO)[C@H](CNc7ccc(C(=O)O)cc7)NC(C)=O)O[C@@H]6C(=O)O)[C@@H]5NC(C)=O)O[C@@H]4C(=O)O)[C@@H]3NC(C)=O)O[C@@H]2C(=O)O)O[C@H](CO)[C@@H](O)[C@@H]1O[C@@H]1O[C@H](C(=O)O)[C@@H](O)[C@H](O)[C@H]1O | Link_TSG6 (Homo sapiens, UniProt P98066) | ΔH | kcal/mol | -11.53 |

// query ΔH value for entry CC(=O)N[C@H]1[C@H](O[C@H]2[C@H](O)[C@@H](O)[C@H](O[C@H]3[C@H](O)[C@@H](CO)O[C@@H](O[C@H]4[C@H](O)[C@@H](O)[C@H](O[C@H]5[C@H](O)[C@@H](CO)O[C@@H](O[C@H]6[C@H](O)[C@@H](O)[C@H](O[C@@H]([C@H](O)[C@H](O)CO)[C@H](CNc7ccccc7C(=O)O)NC(C)=O)O[C@@H]6C(=O)O)[C@@H]5NC(C)=O)O[C@@H]4C(=O)O)[C@@H]3NC(C)=O)O[C@@H]2C(=O)O)O[C@H](CO)[C@@H](O)[C@@H]1O[C@@H]1O[C@H](C(=O)O)[C@@H](O)[C@H](O)[C@H]1O
-12.55
